Items are presented alongside their recorded IC50.
Biological target: cAMP and cAMP-inhibited cGMP 3',5'-cyclic phosphodiesterase 10A (Homo sapiens)
Sequence (Q9Y233 whole entry): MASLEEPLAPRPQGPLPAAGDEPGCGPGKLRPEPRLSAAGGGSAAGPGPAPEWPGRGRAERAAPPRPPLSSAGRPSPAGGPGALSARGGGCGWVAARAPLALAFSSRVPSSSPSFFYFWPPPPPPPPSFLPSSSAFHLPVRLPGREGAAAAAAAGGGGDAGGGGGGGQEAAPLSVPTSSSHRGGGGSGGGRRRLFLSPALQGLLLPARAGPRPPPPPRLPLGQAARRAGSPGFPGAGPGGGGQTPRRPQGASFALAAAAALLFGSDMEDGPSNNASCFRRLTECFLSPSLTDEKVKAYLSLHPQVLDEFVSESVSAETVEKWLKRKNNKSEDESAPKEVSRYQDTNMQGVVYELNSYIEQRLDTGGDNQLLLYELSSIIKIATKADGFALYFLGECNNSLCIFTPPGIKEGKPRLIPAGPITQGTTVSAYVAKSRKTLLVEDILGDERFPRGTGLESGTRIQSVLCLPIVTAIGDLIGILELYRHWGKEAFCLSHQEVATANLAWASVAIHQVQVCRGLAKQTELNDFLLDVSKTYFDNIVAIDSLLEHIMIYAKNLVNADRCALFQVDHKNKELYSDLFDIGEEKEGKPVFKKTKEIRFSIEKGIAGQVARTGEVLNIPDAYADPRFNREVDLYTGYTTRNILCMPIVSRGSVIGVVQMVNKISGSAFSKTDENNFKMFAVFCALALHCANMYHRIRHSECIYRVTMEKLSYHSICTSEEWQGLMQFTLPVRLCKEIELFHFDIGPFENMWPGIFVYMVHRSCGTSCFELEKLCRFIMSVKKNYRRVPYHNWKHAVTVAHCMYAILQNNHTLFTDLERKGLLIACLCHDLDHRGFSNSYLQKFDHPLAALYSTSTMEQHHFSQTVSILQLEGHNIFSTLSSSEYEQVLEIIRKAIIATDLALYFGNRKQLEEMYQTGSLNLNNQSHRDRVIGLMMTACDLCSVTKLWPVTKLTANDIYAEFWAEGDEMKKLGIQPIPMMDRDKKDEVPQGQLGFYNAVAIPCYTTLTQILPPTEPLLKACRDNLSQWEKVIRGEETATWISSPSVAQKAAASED
Test: Diaxonhit Phosphodiesterase Assay: The phosphodiesterase assay was developed using the LANCE cAMP kit (PerkinElmer). The assay buffer contained HBSS with 5 mM HEPES, 0.1% BSA, and 1.5 mM MgCl2, pH 7.4. PDE10A (BPS Bioscience) was used at 200 pg/well (with a specific activity of 3200 pmole/min/ug with assay conditions: 10 mM Tris-HCl, pH 7.4, 10 mM MgCl2, 1 mM MnCl2, 200 uM cAMP, 2.5 kU 5' nucleotidase, 37° C., 20 min) and PDE4D3 (BPS Bioscience) was used at 100 pg/well (with a specific activity of 32713 pmole/min/ug with assay conditions: 10 mM Tris-HCl, pH 7.4, 10 mM MgCl2, 1 mM MnCl2, 200 uM cAMP, 2.5 kU 5' nucleotidase, 37° C., 20 min). The Biotin-cAMP tracer, supplied in 10 mmol/L Tris-HCl buffered (pH 8.0) salt solution with 1 mmol/L ethylenediaminetetraacetic acid (EDTA), 0.1% bovine serum albumin (BSA), and 0.05% sodium azide, is used at a dilution of 1/375. The assay detection mixture contained the LANCE Eu-W8044 labeled streptavidin 1/2250 (supplied in 50 mmol/L Tris-HCl buffer).
measured-metric: IC50 (nM)

structure-smiles-string	readout-value
CCc1ncc(Cc2cc3cc(OC)ccc3nc2O)c2cc(OC)c(OC)cc12	44
CCCOc1cccc2ccc(Cc3cncc4cc(OC)c(OC)cc34)nc12	315
COc1cc2c(Cc3ccc4ccccc4c3)cnc(C)c2cc1OC	194
COc1cc2cncc(Cc3coc4ccccc4c3=O)c2cc1OC	41
COc1cc2cncc(Cc3cnc4ccc(OCC(=O)O)cc4c3)c2cc1OC	7.9
CCCc1ncc(Cc2cnc3ccc(O)c(C(F)(F)F)c3c2)c2cc(OC)c(OC)cc12	13
COCc1ncc(Cc2cnc3ccc(O)c(C(F)(F)F)c3c2)c2cc(OC)c(OC)cc12	4.5
CCCc1ncc(Cc2ccc3cccc(OCCC(=O)O)c3n2)c2cc(OC)c(OC)cc12	2.3
COc1cc2c(Cc3ccc4cccc(NS(N)(=O)=O)c4n3)cnc(C)c2cc1OC	0.71
CCn1c(=O)oc2cc(Cc3cncc4cc(OC)c(OC)cc34)ccc21	32
CCCCc1ncc(Cc2ccc3nc(C)ccc3c2)c2cc(OC)c(OC)cc12	154
COc1cc2cncc(Cc3ccc4c(c3)oc(=O)n4C)c2cc1OC	3.6
COc1cc2c(Cc3ccc4nc(C)ccc4c3)cnc(C3CCCCC3)c2cc1OC	368
CCOc1c(Cc2cncc3cc(OC)c(OC)cc23)cnc2c1cnn2CC	3560
CCCc1ncc(Cc2ccc3c(C(F)(F)F)ccc(O)c3n2)c2cc(OC)c(OC)cc12	491
CCCc1ncc(Cc2ccc3cccc(OCCO)c3n2)c2cc(OC)c(OC)cc12	6.6
CCc1ncc(Cc2ccc3cccc(OCC(N)=O)c3n2)c2cc(OC)c(OC)cc12	20
COc1cc2cncc(Cc3ccc4cccc(OCc5cccnc5)c4n3)c2cc1OC	90
CCc1ncc(Cc2ccc3cccc(NS(=O)(=O)CC)c3n2)c2cc(OC)c(OC)cc12	3.5
CCc1ncc(Cc2ccc3oc4ccccc4c3c2)c2cc(OC)c(OC)cc12	339
COCc1ncc(Cc2ccc3cccc(OCCO)c3n2)c2cc(OC)c(OC)cc12	28
COc1cc2c(Cc3ccc4cccc(OCC(N)=O)c4n3)cnc(C3CC3)c2cc1OC	67
COc1cc2c(Cc3ccc4cccc(O)c4n3)cnc(C3CC3)c2cc1OC	151
CCOc1cc2c(Cc3cnc4ccccc4c3)cncc2cc1OC	92

Where do these numbers come from? They come from ChEMBL document CHEMBL3886179.
